# Tested on: MDA-MB-435
# assay.protocol: NCI60 five-dose screen
# Assay type: cell-based, human
# experimental.context: MDA-MB-435, melanoma; read-out: LC50 (the source's name)
measurement.label: CC50 (µM)
Return type: number; implicit unit µM.

Looking up CCOC(=O)c1cc(/C=N/NC(=O)c2[nH]c3ccc(Br)cc3c2-c2ccccc2)c[nH]1 , I found its CC50 recorded as 9.53

* * *

# Tested on: OVCAR-8
Below: a set of entries, each annotated with reported GI50.
Return type: number; implicit unit nM.

Example cases with answers are listed next.
compound	target.or.test.system	measurement.label	unit.info	observed.result
O=C(N/N=C/c1ccc(C(=O)N2CCOCC2)[nH]1)c1[nH]c2ccc(Br)cc2c1-c1ccccc1 [Derivative 3n]	OVCAR-8	GI50	nM	2860
CCc1cc[nH]c1/C=N/NC(=O)c1[nH]c2ccc(Br)cc2c1-c1ccccc1 [Derivative 3u]	OVCAR-8	GI50	nM	3020
O=C(N/N=C/c1cc(Br)c(Br)[nH]1)c1[nH]c2ccc(Br)cc2c1-c1ccccc1 [Derivative 3f]	OVCAR-8	GI50	nM	1980
O=C(N/N=C/c1ccc[nH]1)c1[nH]c2ccc(Br)cc2c1-c1ccccc1 [Derivative 3a]	OVCAR-8	GI50	nM	323
Cc1[nH]c(/C=N/NC(=O)c2[nH]c3ccc(Br)cc3c2-c2ccccc2)c(C)c1[N+](=O)[O-] [Derivative 3r]	OVCAR-8	GI50	nM	3080
O=C(N/N=C/c1cc(Cl)c[nH]1)c1[nH]c2ccc(Br)cc2c1-c1ccccc1 [Derivative 3h]	OVCAR-8	GI50	nM	214
O=C(N/N=C/c1ccc([N+](=O)[O-])[nH]1)c1[nH]c2ccc(Br)cc2c1-c1ccccc1 [Derivative 3p]	OVCAR-8	GI50	nM	1020
CCOC(=O)c1ccc(/C=N/NC(=O)c2[nH]c3ccc(Br)cc3c2-c2ccccc2)[nH]1 [Derivative 3i]	OVCAR-8	GI50	nM	2490
CCOC(=O)c1c[nH]c(/C=N/NC(=O)c2[nH]c3ccc(Br)cc3c2-c2ccccc2)c1 [Derivative 3j]	OVCAR-8	GI50	nM	2370

Per the reported OVCAR-8 data, O=C(N/N=C/c1cc[nH]c1)c1[nH]c2ccc(Br)cc2c1-c1ccccc1 [Derivative 3b] has GI50 of 1210
